Biological target: ^HsCRM1 (Homo sapiens)
Test: Differential bleaching, competition titration of MBP-NES to FITC-PKI^NES and CRM1 with excess RanGTP
Assay type: binding
Details: MBP-NES competes with FITC-PKI^NES for CRM1; excess RanGTP; triplicate; brackets = 68.3% confidence interval
QUANTITY: Kd (nM)
Quick note: give the figure in nM, leave out the unit.

response.value for GGS-YLKEVDQLRALERLQID [MBP-FMRP-1b^NES, Engineered class 1b NES, an alanine added to FMRP^NES; tested as MBP fusion and as EYFP2-SV40^NLS reporter] (field: Kd) = 3000
